# cleaved RNA product abundance values compiled below
Tested on: Bacillus subtilis
Assay: cleaved RNA product abundance (RNA/gDNA barcode ratio) relative to median wild-type variant (ratio to wild type); higher = more accumulation of the downstream cleavage product
Settings: experiment (reporter, strain, medium): exp 4a: truncated aprE reporter, strain BJT201 with 2% xylose (RNase J1 expressed); cleavage site: cggR-gapA (positions -7 to +36 mutated)
MEASURE: cleaved RNA product abundance

{"SEQUENCE TEXT": "ACAGACGAAGGAGCCGCTAAGAAGTTATTAAGGGATGACTAATCCCTCAATATAAATATCTCTCACTTATTTAAA", "DATA VALUE": 0.542}
{"SEQUENCE TEXT": "ACAGACGAAGGAGCCGCAAAGAAGTTATGACGGGATGAATAATCCCTCAATATAAATATCTCTCACTTATTTAAA", "DATA VALUE": 0.844}
{"SEQUENCE TEXT": "ACAGACGAAGGAGCCGCAAAGAAGTTATTAAGTGATGAATATTCCCTCAATATAAATATCTCTCACTTATTTAAA", "DATA VALUE": 0.102}
{"SEQUENCE TEXT": "ACAGACGAAGGAGCCGCAAAGAAGTTATTTAGGGATAAATAATCCCTCAATATAAATATCTCTCACTTATTTAAA", "DATA VALUE": 0.696}
{"SEQUENCE TEXT": "ACAGACGAAGGAGCCGCAAAGAAGTTATTAAGCGATGAATAAACCCTCAATATAAATATCTCTCACTTATTTAAA", "DATA VALUE": 0.0954}
{"SEQUENCE TEXT": "ACAGACGAAGGAGCCGCAAAGAAGTTATTAAGGGATGAATAATCCCTCAATATAAAAATCTCTCACTTATTTAAA", "DATA VALUE": 0.794}
{"SEQUENCE TEXT": "ACAGACGAAGGAGCCGCAAATAAGTTATTAAAGGATGAATAATCCCTCAATATAGATATCTCTCACTTATTTAAA", "DATA VALUE": 0.188}

* * *

Reported cleaved RNA product abundance values for a set of sequences
Test system: Bacillus subtilis
Assay: cleaved RNA product abundance (RNA/gDNA barcode ratio) relative to median wild-type variant (ratio to wild type); higher = more accumulation of the downstream cleavage product
Conditions: experiment (reporter, strain, medium): exp 4a: truncated aprE reporter, strain BJT201 with 2% xylose (RNase J1 expressed); cleavage site: cggR-gapA (positions -7 to +36 mutated)

{"SEQUENCE TEXT": "ACAGACGAAGGAGCCGCAAAGAAGCTATTAAGGGATGAAAAATCCCTCAATATAAATATCTCTCACTTATTTAAA", "cleaved RNA product abundance": 0.491}
{"SEQUENCE TEXT": "ACAGACGAAGGAGCCGCAAAGAAGTTATTAAGGGACGAATAATCCATCAATATAAATATCTCTCACTTATTTAAA", "cleaved RNA product abundance": 0.0728}
{"SEQUENCE TEXT": "ACAGACGAAGGAGCCGCAAAGAAGTTATTAAGGGATGAATAGTCCCTCAATATAAAAATCTCTCACTTATTTAAA", "cleaved RNA product abundance": 1}
{"SEQUENCE TEXT": "ACAGACGAAGGAGCCGCAAAGAAGTTTTTAAGGGATTAATAATCCCTCAATATAAATATCTCTCACTTATTTAAA", "cleaved RNA product abundance": 0.364}
{"SEQUENCE TEXT": "ACAGACGAAGGAGCCGCAAAGAAGTTATTAAGTGATTAATAATCCCTCAATATAAATATCTCTCACTTATTTAAA", "cleaved RNA product abundance": 0.0979}
{"SEQUENCE TEXT": "ACAGACGAAGGAGCCGCAAAGAAGTTATTAGGAGATGAATAATCCCTCAATATAAATATCTCTCACTTATTTAAA", "cleaved RNA product abundance": 0.24}
{"SEQUENCE TEXT": "ACAGACGAAGGAGCCGCAAAGAAGTTATTAAGGGATGAATAATCCCTACATATAAATATCTCTCACTTATTTAAA", "cleaved RNA product abundance": 0.203}
